The measured values listed here are drawn from ChEMBL document CHEMBL3751783.

Molecular target: GABA transporter 3 (Mus musculus, UniProt P31649)
Sequence (P31649 whole entry): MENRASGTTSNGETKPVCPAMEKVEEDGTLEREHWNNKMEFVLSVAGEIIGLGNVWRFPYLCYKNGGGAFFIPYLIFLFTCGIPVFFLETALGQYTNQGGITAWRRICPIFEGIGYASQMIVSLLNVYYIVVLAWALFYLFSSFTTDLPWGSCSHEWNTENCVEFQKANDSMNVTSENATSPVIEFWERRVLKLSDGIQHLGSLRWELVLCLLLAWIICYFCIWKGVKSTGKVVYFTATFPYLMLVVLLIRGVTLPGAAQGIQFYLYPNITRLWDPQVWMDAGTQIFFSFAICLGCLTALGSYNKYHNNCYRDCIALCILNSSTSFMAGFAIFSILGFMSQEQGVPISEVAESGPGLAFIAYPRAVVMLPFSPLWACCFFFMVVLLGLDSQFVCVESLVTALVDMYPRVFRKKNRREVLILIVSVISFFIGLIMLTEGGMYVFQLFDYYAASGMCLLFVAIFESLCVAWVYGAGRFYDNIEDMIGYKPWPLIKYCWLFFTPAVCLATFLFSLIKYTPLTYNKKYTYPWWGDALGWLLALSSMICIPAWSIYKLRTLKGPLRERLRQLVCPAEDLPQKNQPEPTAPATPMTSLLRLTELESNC
Experiment: Inhibition of mouse GAT2 mediated [3]GABA uptake expressed in HEK293 cells after 3 mins by scintillation counting

- compound: "C=CCN1C(=O)CCC12CCCC21OCCO1 (configuration not stated)"
  IC50: "> 1 mM"
- compound: "C=CC(=O)N1C(=O)C=CC12CCCC21OCCO1 (configuration not stated)"
  IC50: "> 1 mM"
- compound: "O=C(CBr)N1CCCC12CCCCC2"
  IC50: "> 5 mM"
- compound: "O=C(CCl)N1C(=O)CCC12CCCCC2"
  IC50: "> 1 mM"
- compound: "O=C(CCN1CCOCC1)N1C(=O)CCC12CCCCC2"
  IC50: "> 1 mM"
- compound: "C=CC(=O)N1CCCC12CCCCC2"
  IC50: "3.02 mM"
- compound: "C1CCC2(CC1)CCCN2"
  IC50: "> 5 mM"
- compound: "O=C(CBr)N1C(=O)CCC12CCCCC2=O (configuration not stated)"
  IC50: "> 1 mM"
- compound: "CCN(CC)CCC(=O)N1CCCC12CCCCC2"
  IC50: "> 1 mM"
- compound: "C=CC(=O)N1C(=O)CCC12CCCCC2"
  IC50: "> 1 mM"
- compound: "O=C(CCN1CCCC1)N1CCCC12CCCCC2"
  IC50: "> 5 mM"
- compound: "O=C(CCN1CCCC1)N1C(=O)CCC12CCCCC2"
  IC50: "> 1 mM"
